Entries and their MIC Enterococcus faecalis (GC 4552)
system: Enterococcus sp.; test: in vitro antibacterial evaluation, MIC by broth dilution; type: cell-based; settings: Enterococcus faecalis (GC 4552); broth dilution, 18 hours at 35° C.

[
  {
    "COMPOUND": "COc1cc(OC)cc(C2OC3C(OC4C(CO)OC(Oc5ccc(CC6NC(=O)C(C(C)c7ccccc7)NC(=O)CNC(=O)C(CO)NC(=O)C(C(O)C7CNC(=N)N7C7OC(CO)C(O)C(O)C7O)NC(=O)C(C(O)C7CNC(=N)N7)NC6=O)cc5)C(O)C4O)OC(CO)C(O)C3O2)c1 (stereo not shown) [Example 150a]",
    "MIC Enterococcus faecalis (GC 4552)": ">64 µg/mL"
  },
  {
    "COMPOUND": "CC(c1ccccc1)C1NC(=O)CNC(=O)C(CO)NC(=O)C(CC2CN(Cc3ccccc3)C(=NCc3ccccc3)N2C2OC(CO)C(O)C(O)C2O)NC(=O)C(CC2CN(Cc3ccccc3)C(=NCc3ccccc3)N2Cc2ccccc2)NC(=O)C(Cc2ccc(OC3OC(CO)C(OC4OC(CO)C(O)C(O)C4O)C(O)C3O)cc2)NC1=O (stereo not shown) [Example 73]",
    "MIC Enterococcus faecalis (GC 4552)": ">128 µg/mL"
  },
  {
    "COMPOUND": "CC(c1ccccc1)C1NC(=O)CNC(=O)C(CO)NC(=O)C(C(O)C2CN(c3nc4ccccc4o3)C(=N)N2C2OC(CO)C(O)C(O)C2O)NC(=O)C(C(O)C2CNC(=Nc3nc4ccccc4o3)N2)NC(=O)C(Cc2ccc(OC3OC(CO)C(OC4OC(CO)C(O)C(O)C4O)C(O)C3O)cc2)NC1=O (stereo not shown) [Example 93]",
    "MIC Enterococcus faecalis (GC 4552)": ">128 µg/mL"
  },
  {
    "COMPOUND": "CCCCCCC(=O)OCC1OC(N2C(=N)NCC2C(O)C2NC(=O)C(C(O)C3CNC(=N)N3)NC(=O)C(Cc3ccc(OC4OC(CO)C(OC5OC(CO)C(O)C(O)C5O)C(O)C4O)cc3)NC(=O)C(C(C)c3ccccc3)NC(=O)CNC(=O)C(CO)NC2=O)C(O)C(O)C1O (stereo not shown) [Example 97]",
    "MIC Enterococcus faecalis (GC 4552)": ">64 µg/mL"
  }
]

* * *

Entries and their MIC Enterococcus faecalis (GC 3059) values follow.
tested on: Enterococcus sp.; test: in vitro antibacterial evaluation, MIC by broth dilution; type: cell-based; conditions: Enterococcus faecalis (GC 3059); broth dilution, 18 hours at 35° C.
VALUE_TYPE: MIC Enterococcus faecalis (GC 3059)

[
  {
    "MOLECULE": "COc1cc(OC)cc(C2OC3C(OC4C(CO)OC(Oc5ccc(CC6NC(=O)C(C(C)c7ccccc7)NC(=O)CNC(=O)C(CO)NC(=O)C(C(O)C7CNC(=N)N7C7OC(CO)C(O)C(O)C7O)NC(=O)C(C(O)C7CNC(=N)N7)NC6=O)cc5)C(O)C4O)OC(CO)C(O)C3O2)c1 (stereo not drawn) [Example 150a]",
    "RESULT": ">64 µg/mL"
  },
  {
    "MOLECULE": "CC(c1ccccc1)C1NC(=O)CNC(=O)C(CO)NC(=O)C(C(O)C2CNC(=N)N2C2OC(CO)C(O)C(O)C2O)NC(=O)C(C(O)C2CNC(=N)N2)NC(=O)C(Cc2ccc(OC3OC(CO)C(OC4OC5COC(c6cccc(O)c6)OC5C(O)C4O)C(O)C3O)cc2)NC1=O (stereo not drawn) [Example 136]",
    "RESULT": ">64 µg/mL"
  },
  {
    "MOLECULE": "CC(c1ccccc1)C1NC(=O)CNC(=O)C(CO)NC(=O)C(C(O)C2CNC(=N)N2C2OC(CO)C(O)C(O)C2O)NC(=O)C(C(O)C2CNC(=N)N2)NC(=O)C(Cc2ccc(OC3OC(CO)C(OC4OC5COC(Cc6ccccc6)OC5C(O)C4O)C(O)C3O)cc2)NC1=O (stereo not drawn) [Example 102]",
    "RESULT": "2 to 4 µg/mL"
  }
]

Hello, the source for this data is patent US6914045B2, in case you need it.
